Test: Toxic concentration against uninfected cells and their ability to generate XTT formazan
Format: ADME, cell-based
Conditions: read-out: TC50 (the source's name)
// reported CC50 per item
PROPERTY: CC50 (µM)

- COc1ccc2sc3c(c2c1)NC[C@H](CC(C)C)NC3=O: 2
- COc1ccc2sc3c(c2c1)NC[C@H](C(C)C)NC3=O: 4
- COc1ccc2sc3c(c2c1)NCCNC3=O: 4.5
- COc1ccc2sc3c(c2c1)N[C@@H](C)CNC3=O: 2
- COc1ccc2sc3c(c2c1)NC[C@@H](CC(C)C)NC3=O: 7
- COc1ccc2sc3c(c2c1)NC[C@@H](C)NC3=O: 1

The values you see were collected from ChEMBL document CHEMBL1136037.
